# System: Saccharomyces cerevisiae
# assay-info: Antifungal activity against Saccharomyces cerevisiae ATCC 9763 after 24 hrs by micro broth dilution method
# Format: functional
# stated-conditions: ATCC 9763, 24 h
readout-type: MIC80 (µg/mL)
# value in µg/mL; strip the unit string

Tell us which MIC80 value is on record for O=C(O)c1cn(C2CC2)c2cc(N3CCN(Cc4nc5ccccc5n4Cc4ccc(F)cc4)CC3)c(F)cc2c1=O
16

Tell us which MIC80 value is on record for OC(Cn1cncn1)(Cn1cncn1)c1ccc(F)cc1F [FLUCONAZOLE]
16

Tell us which MIC80 value is on record for O=C(O)c1cn(C2CC2)c2cc(N3CCN(c4nc5ccccc5[nH]4)CC3)c(F)cc2c1=O
1

Tell us which MIC80 value is on record for CCCn1c(CN2CCN(c3cc4c(cc3F)c(=O)c(C(=O)O)cn4CC)CC2)nc2ccccc21
32

Tell us which MIC80 value is on record for CCn1c(CN2CCN(c3cc4c(cc3F)c(=O)c(C(=O)O)cn4C3CC3)CC2)nc2ccccc21
128

----------
# System: Saccharomyces cerevisiae
# assay-info: Antifungal activity against Saccharomyces cerevisiae ATCC 9763 after 24 hrs by micro broth dilution method
# Format: functional
# stated-conditions: ATCC 9763, 24 h
Let's look at some molecules and their measured MIC80.
# value in µg/mL; strip the unit string

Before answering, review these 3 worked examples.
INSERT INTO assay_data (line_notation, recorded_value) VALUES
  ('O=C(O)c1cn(C2CC2)c2cc(N3CCN(Cc4nc5ccccc5n4Cc4ccc([N+](=O)[O-])cc4)CC3)c(F)cc2c1=O', 1),
  ('O=C(O)c1cn(C2CC2)c2cc(N3CCN(CNc4nc5ccccc5[nH]4)CC3)c(F)cc2c1=O', 4),
  ('CCn1cc(C(=O)O)c(=O)c2cc(F)c(N3CCN(CNc4nc5ccccc5[nH]4)CC3)cc21', 8);

Tell us which MIC80 value is on record for CCn1cc(C(=O)O)c(=O)c2cc(F)c(N3CCN(Cc4nc5ccccc5n4Cc4ccc(Cl)cc4Cl)CC3)cc21
2

----------
# Tested on: Bacillus spizizenii
# assay-info: Antibacterial activity against Bacillus subtilis ATCC 6633 by micro broth dilution method
# Type: functional
readout-type: MIC (µg/mL)
# value in µg/mL; strip the unit string

INSERT INTO results (compound, recorded_value) VALUES
  ('CCCCCCCCCCCCCCCCCCn1c(CN2CCN(c3cc4c(cc3F)c(=O)c(C(=O)O)cn4C3CC3)CC2)nc2ccccc21', 64),
  ('CCn1cc(C(=O)O)c(=O)c2cc(F)c(N3CCNCC3)cc21', 4),
  ('O=C(O)c1cn(C2CC2)c2cc(N3CCN(c4nc5ccccc5[nH]4)CC3)c(F)cc2c1=O', 2),
  ('CCn1cc(C(=O)O)c(=O)c2cc(F)c(N3CCN(CCc4nc5ccccc5[nH]4)CC3)cc21', 2),
  ('CCCCCCCCn1c(CN2CCN(c3cc4c(cc3F)c(=O)c(C(=O)O)cn4CC)CC2)nc2ccccc21', 32);

Tell us which MIC value is on record for CCn1c(CN2CCN(c3cc4c(cc3F)c(=O)c(C(=O)O)cn4C3CC3)CC2)nc2ccccc21
0.5

Tell us which MIC value is on record for O=C(O)c1cn(C2CC2)c2cc(N3CCN(Cc4nc5ccc(Br)cc5[nH]4)CC3)c(F)cc2c1=O
16

Tell us which MIC value is on record for CCn1cc(C(=O)O)c(=O)c2cc(F)c(N3CCN(Cc4nc5ccccc5n4Cc4ccc(Cl)cc4Cl)CC3)cc21
8

Tell us which MIC value is on record for NC1CCN(c2c(F)cc3c(=O)c(C(=O)O)cn(C4CC4)c3c2Cl)C1 (configuration not stated)
0.5

----------
# Tested on: Escherichia coli
# assay-info: Antibacterial activity against Escherichia coli DH52 by micro broth dilution method
# Assay type: functional
Cut-off 8 mg/L on MIC: below means True, at or above means False.

Use these answered entries as a reference point.
INSERT INTO measurements (line_notation, tgt, cat) VALUES
  ('CCn1c(CN2CCN(c3cc4c(cc3F)c(=O)c(C(=O)O)cn4C3CC3)CC2)nc2ccccc21', 'Escherichia coli', 'True'),
  ('CCCCCCCCCCCCn1c(CN2CCN(c3cc4c(cc3F)c(=O)c(C(=O)O)cn4CC)CC2)nc2ccccc21', 'Escherichia coli', 'False'),
  ('CCn1cc(C(=O)O)c(=O)c2cc(F)c(N3CCN(Cc4nc5ccccc5n4CC)CC3)cc21', 'Escherichia coli', 'True');

Decide: MIC of O=C(O)c1cn(C2CC2)c2cc(N3CCN(Cc4nc5ccccc5n4Cc4ccc([N+](=O)[O-])cc4)CC3)c(F)cc2c1=O strictly below 8 mg/L?
False

Decide: MIC of CCn1cc(C(=O)O)c(=O)c2cc(F)c(N3CCN(c4nc5ccccc5[nH]4)CC3)cc21 strictly below 8 mg/L?
True

Decide: MIC of O=C(O)c1cn(C2CC2)c2cc(N3CCN(Cc4nc5ccc(Cl)cc5[nH]4)CC3)c(F)cc2c1=O strictly below 8 mg/L?
True

Decide: MIC of CCCCCCCCCCCCCCCCCCn1c(CN2CCN(c3cc4c(cc3F)c(=O)c(C(=O)O)cn4C3CC3)CC2)nc2ccccc21 strictly below 8 mg/L?
False

Decide: MIC of O=C(O)c1cn(C2CC2)c2cc(N3CCN(Cc4nc5ccccc5n4Cc4ccccc4Cl)CC3)c(F)cc2c1=O strictly below 8 mg/L?
True

Decide: MIC of O=C(O)c1cn(C2CC2)c2cc(N3CCN(Cc4nc5ccc([N+](=O)[O-])cc5[nH]4)CC3)c(F)cc2c1=O strictly below 8 mg/L?
True

Decide: MIC of CCn1cc(C(=O)O)c(=O)c2cc(F)c(N3CCN(CCc4nc5ccccc5[nH]4)CC3)cc21 strictly below 8 mg/L?
False

----------
# Tested on: Escherichia coli
# assay-info: Antibacterial activity against Escherichia coli DH52 by micro broth dilution method
# Assay type: functional
readout-type: MIC (µg/mL)
# value in µg/mL; strip the unit string

Before answering, review these 3 worked examples.
INSERT INTO results (line_notation, tgt, readout_type, uom, recorded_value) VALUES
  ('CCCCCCCCCCn1c(CN2CCN(c3cc4c(cc3F)c(=O)c(C(=O)O)cn4CC)CC2)nc2ccccc21', 'Escherichia coli', 'MIC', 'µg/mL', 0.5),
  ('CCn1cc(C(=O)O)c(=O)c2cc(F)c(N3CCN(Cc4nc5ccc(Br)cc5[nH]4)CC3)cc21', 'Escherichia coli', 'MIC', 'µg/mL', 16),
  ('CCn1cc(C(=O)O)c(=O)c2cc(F)c(N3CCN(Cc4nc5ccccc5n4Cc4ccccc4Cl)CC3)cc21', 'Escherichia coli', 'MIC', 'µg/mL', 2);

In the following, a different molecule is considered.
Fetch value of MIC on Escherichia coli for O=C(O)c1cn(C2CC2)c2cc(N3CCN(c4nc5ccccc5[nH]4)CC3)c(F)cc2c1=O .
1

----------
# Test system: Saccharomyces cerevisiae
# assay-info: Antifungal activity against Saccharomyces cerevisiae ATCC 9763 after 24 hrs by micro broth dilution method
# Format: functional
# stated-conditions: ATCC 9763, 24 h
Let's look at some molecules and their measured MIC80.
# value in µg/mL; strip the unit string

INSERT INTO assay_data (line_notation, readout_type, uom, recorded_value) VALUES
  ('CCn1cc(C(=O)O)c(=O)c2cc(F)c(N3CCN(c4nc5ccccc5[nH]4)CC3)cc21', 'MIC80', 'µg/mL', 32),
  ('CCn1cc(C(=O)O)c(=O)c2cc(F)c(N3CCN(Cc4nc5ccccc5n4Cc4ccc([N+](=O)[O-])cc4)CC3)cc21', 'MIC80', 'µg/mL', 4),
  ('CCCCCCCCCCn1c(CN2CCN(c3cc4c(cc3F)c(=O)c(C(=O)O)cn4CC)CC2)nc2ccccc21', 'MIC80', 'µg/mL', 4),
  ('CCn1cc(C(=O)O)c(=O)c2cc(F)c(N3CCN(Cc4nc5ccccc5n4CC)CC3)cc21', 'MIC80', 'µg/mL', 64),
  ('CCCCCCCCCCCCCCCCCCn1c(CN2CCN(c3cc4c(cc3F)c(=O)c(C(=O)O)cn4C3CC3)CC2)nc2ccccc21', 'MIC80', 'µg/mL', 64);

Tell us which MIC80 value is on record for O=C(O)c1cn(C2CC2)c2cc(N3CCN(Cc4nc5ccc(Br)cc5[nH]4)CC3)c(F)cc2c1=O
4

Tell us which MIC80 value is on record for CCn1cc(C(=O)O)c(=O)c2cc(F)c(N3CCN(Cc4nc5ccccc5n4Cc4cccc(F)c4)CC3)cc21
2

Tell us which MIC80 value is on record for O=C(O)c1cn(C2CC2)c2cc(N3CCN(Cc4nc5ccccc5n4Cc4cccc(F)c4)CC3)c(F)cc2c1=O
128

Tell us which MIC80 value is on record for O=C(O)c1cn(C2CC2)c2cc(N3CCN(Cc4nc5ccccc5[nH]4)CC3)c(F)cc2c1=O
0.0625

Tell us which MIC80 value is on record for CCCn1c(CN2CCN(c3cc4c(cc3F)c(=O)c(C(=O)O)cn4C3CC3)CC2)nc2ccccc21
0.5

Tell us which MIC80 value is on record for O=C(O)c1cn(C2CC2)c2cc(N3CCN(Cc4nc5ccccc5n4Cc4ccc(Cl)cc4Cl)CC3)c(F)cc2c1=O
1

Tell us which MIC80 value is on record for CCn1cc(C(=O)O)c(=O)c2cc(F)c(N3CCN(Cc4nc5ccc(F)cc5[nH]4)CC3)cc21
0.5

Tell us which MIC80 value is on record for O=C(O)c1cn(C2CC2)c2cc(N3CCN(CCc4nc5ccccc5[nH]4)CC3)c(F)cc2c1=O
1

Tell us which MIC80 value is on record for CCn1cc(C(=O)O)c(=O)c2cc(F)c(N3CCN(Cc4nc5ccc([N+](=O)[O-])cc5[nH]4)CC3)cc21
16

Tell us which MIC80 value is on record for CCn1cc(C(=O)O)c(=O)c2cc(F)c(N3CCN(Cc4nc5ccc(Cl)cc5[nH]4)CC3)cc21
8

Tell us which MIC80 value is on record for CCn1cc(C(=O)O)c(=O)c2cc(F)c(N3CCN(CCc4nc5ccccc5[nH]4)CC3)cc21
64

Tell us which MIC80 value is on record for CCCCCCCCCCCCn1c(CN2CCN(c3cc4c(cc3F)c(=O)c(C(=O)O)cn4C3CC3)CC2)nc2ccccc21
8

Tell us which MIC80 value is on record for CCn1cc(C(=O)O)c(=O)c2cc(F)c(N3CCN(Cc4nc5ccccc5n4Cc4ccccc4Cl)CC3)cc21
1
